molecular target: SMYD3 (Homo sapiens (Human), UniProt Q9H7B4); experiment: SMYD3 biochemical assay (SMYD3 enzyme assay on MEKK2 protein substrate, scintillation proximity assay); conditions: 3H-SAM, SPA, IC50 values are an average of n = 1 to n = 50, read-out: SMYD3 Biochem IC50
Sequence (Q9H7B4 whole entry): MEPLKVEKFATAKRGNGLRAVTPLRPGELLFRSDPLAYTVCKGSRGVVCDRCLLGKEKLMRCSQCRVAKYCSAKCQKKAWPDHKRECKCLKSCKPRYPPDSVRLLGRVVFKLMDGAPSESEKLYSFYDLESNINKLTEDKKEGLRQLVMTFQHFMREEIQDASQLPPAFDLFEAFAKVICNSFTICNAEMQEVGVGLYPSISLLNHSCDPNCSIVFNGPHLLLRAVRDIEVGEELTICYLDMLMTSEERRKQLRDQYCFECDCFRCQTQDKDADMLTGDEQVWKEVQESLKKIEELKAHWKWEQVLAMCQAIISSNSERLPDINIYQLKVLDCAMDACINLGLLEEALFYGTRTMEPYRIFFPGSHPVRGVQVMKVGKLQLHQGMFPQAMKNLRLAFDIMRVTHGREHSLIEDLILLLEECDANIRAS
Assay Readout: IC50 (µM)

CN(C(=O)c1cc(C2CC2)on1)[C@H]1CC[C@@H](NC(=O)CCN)CC1 : 36.6
O=C(CCN1CCOCC1)N[C@H]1CC[C@H](NC(=O)c2cc(C3CC3)on2)CC1 : 20.4
NCCN[C@H]1CC[C@H](NC(=O)c2cc(C3CC3)on2)CC1 : 0.853

(P) NC1CCC1C(=O)N[C@H]1CC[C@H](NC(=O)c2cc(C3CC3)on2)CC1 (some centres unmarked)
(Q) NCCCS(=O)(=O)N[C@H]1CC[C@H](NC(=O)c2cc(C3CC3)on2)CC1
*Q* Could you kindly indicate whether P or Q has the higher IC50 value? Pick one; state its label.
*A* Q
(Q: 1.34 µM, P: 0.545 µM)

(I) N[C@@H]1CC[C@H](C(=O)N[C@H]2CC[C@H](NC(=O)c3cc(C4CC4)on3)CC2)C1
(II) C[C@@H](N)CC(=O)N[C@H]1CC[C@H](N(CCO)C(=O)c2cc(C3CC3)on2)CC1
(III) COCCN(C(=O)c1cc(C2CC2)on1)[C@H]1CC[C@H](NC(=O)C[C@@H](C)N)CC1
*Q* Please order the records by their reported IC50, lowest number first. Respond with the label ranking, as requested.
*A* I, III, II

(P) NCC(O)C(=O)N[C@H]1CC[C@H](NC(=O)c2cc(C3CC3)on2)CC1 (some centres unmarked)
(Q) CCS(=O)(=O)N[C@H]1CC[C@H](NC(=O)c2cc(C3CC3)on2)CC1
*Q* Could you kindly indicate whether P or Q has the higher IC50 value? Pick one; state its label.
*A* Q

(a) C[C@@H](N)CC(=O)N[C@H]1CC[C@H](NC(=O)c2cc(C3CC3)on2)CC1
(b) C[C@H](N)CC(=O)N[C@H]1CC[C@H](N(Cc2ccccc2)C(=O)c2cc(C3CC3)on2)CC1
*Q* Select one. Lower IC50: a or b Pick one; state its label.
*A* a
(a: 0.4 µM, b: 19.7 µM)

(P) C[C@H](N)CC(=O)N[C@H]1CC[C@H](N(C)C(=O)c2cc(C3CC3)on2)CC1
(Q) N[C@H]1CC[C@@H](C(=O)N[C@H]2CC[C@H](NC(=O)c3cc(C4CC4)on3)CC2)CC1
(R) C[C@@H](N)CC(=O)N[C@H]1CC[C@@H](N(C)C(=O)c2cc(C3CC3)on2)CC1
(S) C[C@H](N)CC(=O)N[C@H]1CC[C@H](N(CCO)C(=O)c2cc(C3CC3)on2)CC1
*Q* Arrange by IC50, high to low. Respond with the label ranking, as requested.
*A* R, S, P, Q
(R: 24.4 µM, S: 13.8 µM, P: 6.11 µM, Q: 0.352 µM)

(P) NCCC(=O)N(CCCO)[C@H]1CC[C@H](NC(=O)c2cc(C3CC3)on2)CC1
(Q) COCCN(C(=O)c1cc(C2CC2)on1)[C@H]1CC[C@H](NC(=O)CCN)CC1
*Q* Select one. Lower IC50: P or Q Pick one; state its label.
*A* P

(1) CCc1cc(C(=O)N[C@H]2CC[C@H](NC(=O)C[C@@H](C)N)C[C@H]2CC)no1 (mixture of isomers)
(2) CNCCC(=O)N[C@H]1CC[C@H](NC(=O)c2cc(C3CC3)on2)CC1
*Q* Could you kindly indicate whether 1 or 2 has the higher IC50 value? Pick one; state its label.
*A* 2

(a) NCCC(=O)N[C@H]1CC[C@H](N(Cc2ccccc2)C(=O)c2cc(C3CC3)on2)CC1
(b) CCc1cc(C(=O)N[C@H]2CC[C@H](NC(=O)C[C@H](C)N)C[C@H]2CC)no1 (mixture of isomers)
*Q* Select one. Lower IC50: a or b Pick one; state its label.
*A* b

# credit: patent US10106510B2
